SYSTEM NAME: MR (Homo sapiens)
Construct: expressed in transfected cells; host or cells: Huh7 human liver cells (ATCC), transient transfection with FuGENE 6
Sequence (P08235 726-964 limits assumed): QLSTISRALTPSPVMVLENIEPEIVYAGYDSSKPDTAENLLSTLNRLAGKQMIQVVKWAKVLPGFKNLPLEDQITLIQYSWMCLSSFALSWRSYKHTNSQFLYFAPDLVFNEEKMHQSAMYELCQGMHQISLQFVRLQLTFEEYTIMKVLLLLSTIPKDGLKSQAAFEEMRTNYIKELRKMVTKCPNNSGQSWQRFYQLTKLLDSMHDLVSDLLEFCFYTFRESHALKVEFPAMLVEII
PROTOCOL DETAILS: Cell-based reporter assay (Gal4-MR-LBD luciferase, antagonist mode)
Parameter pIC50: see the listing below.
pIC50 here: minus log base 10 of the concentration, concentration in moles per litre.

Solved cases (3 shown):
MOLECULE | SYSTEM NAME | VALUE
CC[C@@H]1CN(c2ccc3c(n2)NC(=O)CO3)C[C@H](CC)O1 | MR (Homo sapiens) | 5.33
C[C@@H]1CN(c2cc3c(cn2)OCC(=O)N3)[C@H](c2ccccc2)[C@H](C)O1 | MR (Homo sapiens) | 6.40
O=C1COc2ccc(N3CCOC[C@H]3c3ccccc3)cc2N1 | MR (Homo sapiens) | 6.23

GET /values?readout=pIC50&system=MR (Homo sapiens)&item= CCC1CN(c2ccc3c(n2)NC(=O)CO3)CCO1 (centres unmarked) 5.47

GET /values?readout=pIC50&system=MR (Homo sapiens)&item= "Cc1nc(N2C[C@@H](C)OC[C@H]2c2ccccc2)nc2c1OCC(=O)N2" 5.64

* * *

SYSTEM NAME: MR (Homo sapiens, UniProt P08235)
Construct: expressed in transfected cells; host or cells: Huh7 human liver cells (ATCC), transient transfection with FuGENE 6
Sequence (P08235 726-964 limits assumed): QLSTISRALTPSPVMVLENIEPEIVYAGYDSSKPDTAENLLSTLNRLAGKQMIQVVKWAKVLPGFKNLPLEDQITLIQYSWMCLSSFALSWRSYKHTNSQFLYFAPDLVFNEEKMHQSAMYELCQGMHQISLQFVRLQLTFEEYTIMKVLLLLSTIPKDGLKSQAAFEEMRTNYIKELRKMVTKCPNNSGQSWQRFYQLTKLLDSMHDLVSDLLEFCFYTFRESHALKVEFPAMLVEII
PROTOCOL DETAILS: Cell-based reporter assay (Gal4-MR-LBD luciferase, antagonist mode)
Parameter IC50: see the listing below.
Your answer should be a number followed by the unit of measure.

Solved cases (5 shown):
COMPOUND | SYSTEM NAME | IC50
C[C@@H]1CN(c2nc3c(cc2C#N)OCC(=O)N3)[C@H](c2ccccc2)CO1 | MR (Homo sapiens, UniProt P08235) | 9560 nM
C[C@@H]1CN(c2ccc3c(n2)NC(=O)CO3)CCO1 (single isomer, unassigned) | MR (Homo sapiens, UniProt P08235) | 5610 nM
C[C@H]1CN(c2ccc3c(n2)NC(=O)CO3)CCO1 (single isomer, unassigned) | MR (Homo sapiens, UniProt P08235) | 2710 nM
C[C@@H]1CN(c2nc3c(cc2F)OCC(=O)N3)[C@H](c2ccccc2)CO1 | MR (Homo sapiens, UniProt P08235) | 1440 nM
C[C@H]1CN(c2ccc3c(n2)NC(=O)CO3)[C@@H]2c3ccccc3C[C@@H]2O1 (single isomer, unassigned) | MR (Homo sapiens, UniProt P08235) | 1770 nM

Look at this compound and give its reported IC50. COc1ccccc1[C@H]1CO[C@@H](C)CN1c1cc2c(cn1)OCC(=O)N2 (racemic) 7910 nM

Look at this compound and give its reported IC50. "C[C@@H]1CN(c2ccc3ccc(=O)[nH]c3c2)[C@H](c2ccccc2)CO1" 703 nM

Look at this compound and give its reported IC50. "C[C@@H]1CN(c2ccc3c(c2)NS(=O)(=O)CO3)[C@H](c2ccccc2)CO1" 1630 nM

Look at this compound and give its reported IC50. "O=C1COc2ccc(N3CC4(COC4)OC[C@H]3c3ccccc3)nc2N1" 628 nM

Look at this compound and give its reported IC50. "C[C@@H]1CN(c2ccc3c(n2)NC(=O)CO3)C[C@@H](C)O1" 2800 nM

Look at this compound and give its reported IC50. "C[C@@H]1CN(c2ccc3c(n2)NC(=O)CO3)[C@H](c2ccccc2)[C@H](C)O1" 204 nM

Look at this compound and give its reported IC50. "C[C@@H]1CN(c2ncc3c(n2)NC(=O)CO3)[C@H](c2ccccc2)[C@H](C)O1" 527 nM

Look at this compound and give its reported IC50. "C[C@@H]1CN(c2ccc3ncc(=O)[nH]c3c2)[C@H](c2ccccc2)CO1" 157 nM

Look at this compound and give its reported IC50. "C[C@@H]1CN(c2cc3c(cn2)OCC(=O)N3)[C@H](c2ccc(F)cc2)CO1" 646 nM

Look at this compound and give its reported IC50. "C[C@@H]1CN(c2ccc3c(n2)NCCO3)[C@H](c2ccccc2)CO1" 977 nM

Look at this compound and give its reported IC50. O=C1COc2ccc(N3CCOCC34CCc3ccccc34)nc2N1 (centres unmarked) 1740 nM
